Just for reference, paper PMC9482650 is where these values come from.

Molecular target: NHERF4_1, Q86UT5-2
Sequence (Q86UT5 other isoform, or with tags, fused parts or gaps): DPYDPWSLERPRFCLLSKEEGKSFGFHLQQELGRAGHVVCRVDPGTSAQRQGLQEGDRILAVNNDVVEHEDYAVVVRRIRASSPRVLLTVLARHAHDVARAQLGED
Assay: holdup assay
Parameters: key: below the threshold = too weak to quantify, mostly under pKd 3.1 to 4
Conditions: plain residues with an end cap or a label only (N-terminal biotin on a linker: ado-ado)
ENDPOINT NAME: pKd

Sample records with pKd:
# BINDER, pKd
rows = [
    ("QGLAERISVL [PRKD2, Q9BZL6]", 4.27),
    ("KKAPTNEFYA [SDC4, P31431]", "below the threshold"),
    ("PRAEAEDSFL [PDGFRB, P09619]", 3.89),
    ("DDEDRLVIEI [ZNF831, Q5JPB2]", "below the threshold"),
    ("RKPKPSSSCC [RAB9A, P51151]", 3.81),
]

Prompt: Param item = LPHPHSTTRV [NLGN2, Q8NFZ4] ; retrieve measured pKd.
Response: below the threshold

Prompt: Param item = DTTVPESEDL [MYOZ2, Q9NPC6] ; retrieve measured pKd.
Response: 3.92

Prompt: Param item = PEYLGLDVPV [ERBB2, P04626] ; retrieve measured pKd.
Response: below the threshold

Prompt: Param item = SARSRLSSNL [HCN2, Q9UL51] ; retrieve measured pKd.
Response: 3.96

Prompt: Param item = MLSKQSESAI [FLVCR1, Q9Y5Y0] ; retrieve measured pKd.
Response: 3.6

Prompt: Param item = QSARLWETSI [ADAM22, Q9P0K1] ; retrieve measured pKd.
Response: below the threshold

Prompt: Param item = GQEEQVTTRL [TRPC5, Q9UL62] ; retrieve measured pKd.
Response: 4.38

Prompt: Param item = QMNQTLPVQV [EPHB3, P54753] ; retrieve measured pKd.
Response: below the threshold

Prompt: Param item = VKPQVSESKL [ACOT8, O14734] ; retrieve measured pKd.
Response: 3.78
